These measurements were taken from ChEMBL document CHEMBL3507680.

# protocolNotes: Human HepG2 cell viability assay in 384 well format
# Assay type: toxicity, cell-based
# Parameters: dose 125 nL, time 70.5 hour; concentration not given beside the values
# settings: HepG2 cells, read-out: Inhibition

# compound, cytotoxicity at 70.5 h
measured = [
    ("O=C(C1CC=CC1)N1CC[C@@H]2O[C@H](COCC3CCOCC3)CC[C@@H]21", "-6.77%"),
    ("COc1ccc2c(c1)NC(C1CCNCC1)NS2(=O)=O (stereo not given)", "-4.76%"),
    ("O=C(C1CC(=O)N(C2CC2)C1)N1CCC(Oc2ccccc2Cl)CC1 (stereo not given)", "0.0694%"),
    ("O=C(Oc1ccccc1)N1CCC(CNS(=O)(=O)c2cccnc2)CC1", "20.9%"),
    ("O=C(c1cccnc1)N1CCC2(CCN(C(=O)N3CCCC3)CC2)C1", "-0.226%"),
]

* * *

# protocolNotes: Human HepG2 cell viability assay in 384 well format
# Type: toxicity, cell-based
# Parameters: dose 125 nL, time 70.5 hour; concentration not given beside the values
# settings: HepG2 cells, read-out: Inhibition

# compound, cytotoxicity at 70.5 h (%)
rows = [
    ("CCc1nc(COc2ccc(N(C)C(C)=O)cc2)no1", 26),
    ("Cn1nnnc1SC1CCCN(c2ccccc2Cl)C1=O (stereo unspecified)", -1.81),
    ("COCCc1noc(CNC2CCCN(c3cccnn3)C2)n1 (stereo unspecified)", 11),
    ("Cc1ccc(C(=O)N2CCC3(CC2)CC(NC(=O)C(C)C)CO3)cc1 (stereo unspecified)", 5.27),
    ("Cc1ncccc1OCC(=O)N1CCN[C@H]2CS(=O)(=O)C[C@H]21", -11.5),
    ("CN1C(=O)C(c2ccccc2)CC12CCN(CCOCCO)CC2 (stereo unspecified)", 3.55),
    ("COc1cc2ncn(CC(=O)NCCCN(C)C)c(=O)c2cc1OC", -6.49),
    ("Cc1nc(Cn2c3c(ccc2=O)CC(NC(N)=O)CC3)cs1 (stereo unspecified)", 5.59),
    ("O=C(Nc1ccc(-n2cccn2)c(F)c1)C1CCN(C(=O)C2CC2)CC1", -0.357),
    ("CC(=O)N1CCCC2(CN(Cc3ccccc3C(F)(F)F)CCO2)C1 (stereo unspecified)", -2.98),
    ("COCCN1CCC(CN(CC2CCCO2)C(=O)Cc2cccs2)CC1 (stereo unspecified)", -4.23),
]

* * *

Property: cytotoxicity at 70.5 h; scope: individual compounds
# protocolNotes: Human HepG2 cell viability assay in 384 well format
# Assay type: toxicity, cell-based
# Parameters: dose 125 nL, time 70.5 hour; concentration not given beside the values
# settings: HepG2 cells, read-out: Inhibition
measurementKind: cytotoxicity at 70.5 h (%)

# compound, numericValue
records = [
    ("Cc1nnc(SCCC(=O)N(C)Cc2ccc(F)cc2Cl)[nH]1", -4.47),
    ("CCC(c1ccccc1)S(=O)(=O)CCO (configuration not stated)", -2.1),
    ("CCCN1CCC(c2nc3ccc(NCc4cccnc4)cn3n2)CC1", -10.3),
    ("COc1cc(C)ccc1OCCC(=O)N1CCCC1Cn1cccn1 (configuration not stated)", -3.24),
    ("C/C=C(/C)C(=O)NS(=O)(=O)c1ccc(Cl)cn1", -0.512),
    ("N#Cc1ccc(NCCC(=O)N2CCCc3ccccc32)nc1", -6.4),
    ("COCCOc1ccc(NC(=O)N(C)Cc2ccsc2)cn1", 3.32),
    ("Cc1nc(C)n(CC2CCCCN2CCCS(=O)(=O)N(C)C)n1 (configuration not stated)", 3.2),
    ("Cc1ncsc1C(=O)NC1CCN(c2ncccc2C#N)CC1", -6.11),
    ("CCCc1nc(C(C)(C)NC(=O)C2CC(=O)N(CC(C)C)C2)no1 (configuration not stated)", -4.84),
    ("COc1cccc2c1N(Cc1nc3c(cnn3C)c(=O)[nH]1)CCC2", 22.2),
    ("Cc1nn(C)c(N2CCOCC2)c1CNCc1ccccc1CO", -10.1),
]
